- System: SK-MEL-5 melanoma
- experimental_details: NCI-60 one-dose screen, 48 h (100 = growth as untreated, 0 = no growth, -100 = all killed)
- condition_context: 10 µM
This is part of a sample that, as a whole, favours compounds with a hit. Of some 83,000 tested, about 20% had one in any assay. Calls of active or inactive are those of the source. How the source made its calls: active means growth percent below 10; inactive means the rest.
measure: growth

Report its growth with SK-MEL-5 melanoma as the test system: COc1cc(-c2nc(-c3nnc(-c4cccnc4)o3)c3ccccn23)cc(OC)c1OC
90.7% (inactive)

Report its growth with SK-MEL-5 melanoma as the test system: COc1cccc(C(=O)NNc2nc(N3CCOCC3)nc(N3CCN(C(c4ccccc4)c4ccccc4)CC3)n2)c1
53.3% (inactive)

Report its growth with SK-MEL-5 melanoma as the test system: c1ccc(C2CCCCC2)c(OCCCCCN2CCNCC2)c1
16.5% (inactive)

Report its growth with SK-MEL-5 melanoma as the test system: CCOC(=O)C(CCC1=NC(C)(C)CC(C)O1)C(=O)OCC (stereo unspecified)
108% (inactive)

Report its growth with SK-MEL-5 melanoma as the test system: Nc1ccc2c(c1)Cc1cc(N)c(Cl)cc1-2
93.9% (inactive)

Report its growth with SK-MEL-5 melanoma as the test system: CCc1nn2c(-c3ccccc3)c(-c3cc(OC)c(OC)c(OC)c3)nc2s1
71.9% (inactive)
